Counter-ions that a name gives are not always drawn.

| compound | melting point |
| --- | --- |
| CC(C)(C)c1nc2ccc(NC3=NCCN3)c(Br)c2[nH]1 (as salt: fumarate) | 176 to 178 °C |
| CC(C)n1cnc2c(I)c(NC3=NCCN3)ccc21 (as salt: fumarate) | 208 to 209 °C |
| Cc1cc2nc[nH]c2cc1NC1=NCCN1 (as salt: fumarate) | 219 to 221 °C |
| Clc1cc(NC2=NCCN2)cc2[nH]cnc12 (as salt: fumarate) | 220 to 221 °C |
| c1ccc(Cn2cnc3ccc(NC4=NCCN4)cc32)cc1 (as salt: fumarate) | 174 to 175 °C |
| COc1cccc(Cn2cnc3c(Br)c(NC4=NCCN4)ccc32)c1 (as salt: fumarate) | 177 to 178 °C |
| Brc1c(NC2=NCCN2)ccc2nc[nH]c12 (as salt: fumarate) | 199 to 202 °C |
| Clc1c(NC2=NCCN2)ccc2nc[nH]c12 (as salt: fumarate) | 207 to 208 °C |
